Target Under Test: GDP-bound KRAS wild-type protein (Homo sapiens)
Test Details: Binding to KRAS by surface plasmon resonance (SPR), Single Cycle Kinetics
Experimental Conditions: SPR Single Cycle Kinetics, GDP-bound KRAS wild-type protein, 1:1 binding model; read-out: KRAS KD
Where a SMILES comes first, the peptide text is derived from it. Bridges are numbered along the chain shown (N, C = ends). [ ]: non-standard residue; d: D form. The star is where a group is joined. hPhe(3-Cl-4-CF3) = N[C@@H](CCc1ccc(C(F)(F)F)c(Cl)c1)C(=O)O; NPrPhe(4-CF3) = CCCN[C@@H](Cc1ccc(C(F)(F)F)cc1)C(=O)O; NMeGly(cPent) = CN[C@H](C(=O)O)C1CCCC1; NMeD = CN[C@@H](CC(=O)O)C(=O)O; NMeL = CN[C@@H](CC(C)C)C(=O)O; Morpholide = C1CN(*)CCO1; Aze = O=C(O)[C@@H]1CCN1; Ac4c = NC1(C(=O)O)CCC1; Sar = CNCC(=O)O
As shown below, each of these compounds has a reported Kd value.
Field: numeric (nM). Do not append units.

In the examples that follow, each entry is paired with its recorded Kd.
Compound	Kd / nM
CCCN1C(=O)[C@@H]2CCN2C(=O)CN(C)C(=O)[C@H]([C@@H](C)CC)NC(=O)[C@H](CC(C)C)N(C)C(=O)C[C@@H](C(=O)N2CCOCC2)N(C)C(=O)[C@H](C2CCCC2)N(C)C(=O)C2(CCC2)NC(=O)[C@@H]2CCCN2C(=O)[C@H](CCc2ccc(C(F)(F)F)c(Cl)c2)NC(=O)CN(C)C(=O)[C@@H]1Cc1ccc(C(F)(F)F)cc1 [PP0407] ([NMeL]I[Sar][Aze][NPrPhe(4-CF3)][Sar][hPhe(3-Cl-4-CF3)]P[Ac4c][NMeGly(cPent)][NMeD]-Morpholide; lactam N-11)	0.11
CCC[C@H]1C(=O)N[C@@H]([C@@H](C)CC)C(=O)N(C)CC(=O)N(C)[C@H]2C/C=C\CCN(C2=O)[C@@H](Cc2ccc(C(F)(F)F)cc2)C(=O)N(C)CC(=O)N[C@@H](CCc2ccc(Cl)c(C(F)(F)F)c2)C(=O)N2C[C@H](OCC)C[C@H]2C(=O)NC2(CC(C)(C)C2)C(=O)N(C)[C@@H](C2CCCC2)C(=O)N(C)[C@H](C(=O)N(C)C)CC(=O)N1C	0.13

Next compound, Kd to be filled in.
Which Kd value is on record for CC[C@H](C)[C@@H]1NC(=O)[C@H](CC(C)C)N(C)C(=O)C[C@@H](C(=O)N2CCOCC2)N(C)C(=O)[C@H](C2CCCC2)N(C)C(=O)C2(CC(F)(F)C2)NC(=O)[C@@H]2CCCN2C(=O)[C@H](CCc2cc(F)c(C(F)(F)F)c(F)c2)NC(=O)CN(C)C(=O)[C@H](Cc2ccc(C(F)(F)F)cc2)N2CCCCC[C@@H](C2=O)N(C)C(=O)CN(C)C1=O ?
1.1

###

Target Under Test: GDP-bound KRAS wild-type protein (Homo sapiens, UniProt P01116)
Sequence (P01116 whole entry): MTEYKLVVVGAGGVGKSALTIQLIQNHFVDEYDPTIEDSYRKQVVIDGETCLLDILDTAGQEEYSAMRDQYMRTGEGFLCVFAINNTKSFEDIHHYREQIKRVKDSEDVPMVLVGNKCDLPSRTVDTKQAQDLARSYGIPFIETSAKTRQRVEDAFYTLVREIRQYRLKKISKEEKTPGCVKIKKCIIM
Test Details: Binding to KRAS by surface plasmon resonance (SPR), Single Cycle Kinetics
Experimental Conditions: SPR Single Cycle Kinetics, GDP-bound KRAS wild-type protein, 1:1 binding model; read-out: KRAS KD
Where a SMILES comes first, the peptide text is derived from it. Bridges are numbered along the chain shown (N, C = ends). [ ]: non-standard residue; d: D form. The star is where a group is joined. hPhe(3-Cl-4-CF3) = N[C@@H](CCc1ccc(C(F)(F)F)c(Cl)c1)C(=O)O; NPrPhe(4-CF3) = CCCN[C@@H](Cc1ccc(C(F)(F)F)cc1)C(=O)O; NEtPhe(4-Me) = CCN[C@@H](Cc1ccc(C)cc1)C(=O)O; NMeGly(cPent) = CN[C@H](C(=O)O)C1CCCC1; NMeD = CN[C@@H](CC(=O)O)C(=O)O; NMeL = CN[C@@H](CC(C)C)C(=O)O; Morpholide = C1CN(*)CCO1; Ac5c = NC1(C(=O)O)CCCC1; NEtG = CCNCC(=O)O; Sar = CNCC(=O)O
As shown below, each of these compounds has a reported Kd value.
Field: numeric (pM). Do not append units.

In the examples that follow, each entry is paired with its recorded Kd.
Compound	Target Under Test	Kd (pM)
CC[C@H](C)[C@@H]1NC(=O)[C@H](CC(C)C)N(C)C(=O)C[C@@H](C(=O)N2CCOCC2)N(C)C(=O)[C@H](C2CCCC2)N(C)C(=O)C2(CCCC2)NC(=O)[C@@H]2CCCN2C(=O)[C@H](CCc2ccc(C(F)(F)F)c(Cl)c2)NC(=O)CN(C)C(=O)[C@H](Cc2ccc(C)cc2)N(CC)C(=O)CN(C)C(=O)CN(C)C1=O [PP0022] ([NMeL]I[Sar][Sar][NEtPhe(4-Me)][Sar][hPhe(3-Cl-4-CF3)]P[Ac5c][NMeGly(cPent)][NMeD]-Morpholide; lactam N-11)	GDP-bound KRAS wild-type protein (Homo sapiens, UniProt P01116)	180
CCCN1C(=O)CN(C)C(=O)CN(C)C(=O)[C@H]([C@@H](C)CC)NC(=O)[C@H](CC(C)C)N(C)C(=O)C[C@@H](C(=O)N2CCOCC2)N(C)C(=O)[C@H](C2CCCC2)N(C)C(=O)C2(CCCC2)NC(=O)CN(CC)C(=O)[C@H](CCc2ccc(C(F)(F)F)c(Cl)c2)NC(=O)CN(C)C(=O)[C@@H]1Cc1ccc(C(F)(F)F)cc1 [PP0144] ([NMeL]I[Sar][Sar][NPrPhe(4-CF3)][Sar][hPhe(3-Cl-4-CF3)][NEtG][Ac5c][NMeGly(cPent)][NMeD]-Morpholide; lactam N-11)	GDP-bound KRAS wild-type protein (Homo sapiens, UniProt P01116)	240

Which Kd value is on record for CC[C@H](C)[C@@H]1NC(=O)[C@H](CC(C)C)N(C)C(=O)C[C@@H](C(=O)N2CCOCC2)N(C)C(=O)[C@H](C2CCCC2)N(C)C(=O)C2(CCC2)NC(=O)[C@@H]2CC(F)(F)CN2C(=O)[C@H](CCc2cc(F)c(C(F)(F)F)c(F)c2)NC(=O)CN(C)C(=O)[C@H](Cc2ccc(C(F)(F)F)cc2)N2CCCCC[C@@H](C2=O)N(C)C(=O)CN(C)C1=O [PP0464] ?
920

###

Target Under Test: GDP-bound KRAS wild-type protein (Homo sapiens)
Test Details: Binding to KRAS by surface plasmon resonance (SPR), Single Cycle Kinetics
Experimental Conditions: SPR, Single Cycle Kinetics, GDP-bound KRAS wild-type protein; read-out: KRAS KD
As shown below, each of these compounds has a reported Kd value.
Field: numeric (pM). Do not append units.

Which Kd value is on record for CCO[C@@H]1C[C@H]2C(=O)NC3(CCC3)C(=O)N(C)[C@@H](C3CCCC3)C(=O)N(C)[C@H](C(=O)N(C)C)CC(=O)N(C)[C@@H](Cc3cccs3)C(=O)N[C@@H]([C@@H](C)CC)C(=O)N(C)CC(=O)N(C)[C@H]3CCCCCN(C3=O)[C@@H](Cc3ccc(C(F)(F)F)cc3)C(=O)N(C)CC(=O)N[C@@H](CCc3cc(F)c(C(F)(F)F)c(F)c3)C(=O)N2C1 ?
320

Which Kd value is on record for CCCC[C@H]1C(=O)NC2(CCC2)C(=O)N(C)[C@@H](C2CCCC2)C(=O)N(C)[C@H](C(=O)N(C)C)CC(=O)N(C)[C@@H](CC)C(=O)N[C@@H]([C@@H](C)CC)C(=O)N(C)CC(=O)N(C)[C@H]2C/C=C\CCN(C2=O)[C@@H](Cc2ccc(C(F)(F)F)cc2)C(=O)N(C)CC(=O)N[C@@H](CCc2cc(F)c(C(F)(F)F)c(F)c2)C(=O)N1C ?
170

Which Kd value is on record for CCO[C@@H]1C[C@H]2C(=O)NC3(CC(C)(C)C3)C(=O)N(C)[C@@H](C3CCCC3)C(=O)N3CCC[C@@H]3CC(=O)N(C)[C@@H](CC3CC3)C(=O)N[C@@H]([C@@H](C)CC)C(=O)N(C)CC(=O)N(C)[C@H]3C/C=C\CCN(C3=O)[C@@H](Cc3ccc(C(F)(F)F)cc3)C(=O)N(C)CC(=O)N[C@@H](CCc3cc(F)c(C(F)(F)F)c(F)c3)C(=O)N2C1 ?
1300

###

Target Under Test: GDP-bound KRAS wild-type protein (Homo sapiens)
Test Details: Binding to KRAS by surface plasmon resonance (SPR), Single Cycle Kinetics
Experimental Conditions: SPR, Single Cycle Kinetics, GDP-bound KRAS wild-type protein; read-out: KRAS KD
Doc: threshold 0.1 nM (exclusive). Items with Kd beneath it return label 1; others return label 0.

Dear colleague, could you confirm whether Kd of CCC[C@H]1C(=O)N[C@@H]([C@@H](C)CC)C(=O)N(C)CC(=O)N(C)[C@H]2C/C=C\CCN(C2=O)[C@@H](Cc2ccc(C(F)(F)F)cc2)C(=O)N(C)CC(=O)N[C@@H](CCc2cc(F)c(C(F)(F)F)c(F)c2)C(=O)N2C[C@H](OCC)C[C@H]2C(=O)NC2(CC(C)(C)C2)C(=O)N(C)[C@@H](C(CC)CC)C(=O)N(C)[C@H](C(=O)N(C)C)CC(=O)N1C falls below 0.1 nM? Thanks.
label 0

Dear colleague, could you confirm whether Kd of CCO[C@@H]1C[C@H]2C(=O)NC3(CCC3)C(=O)N(C)[C@@H](C3CCCC3)C(=O)N(C)[C@H](C(=O)N3CCCC3)CC(=O)N(C)[C@@H](CC)C(=O)N[C@@H]([C@@H](C)CC)C(=O)N(C)CC(=O)N(C)[C@H]3C/C=C\CCN(C3=O)[C@@H](Cc3ccc(C(F)(F)F)cc3)C(=O)N(C)CC(=O)N[C@@H](CCc3cc(F)c(C(F)(F)F)c(F)c3)C(=O)N2C1 falls below 0.1 nM? Thanks.
label 1
